src = ChEMBL document CHEMBL1201862

test system: UACC-62; test: NCI tumour cell line growth inhibition, 48 h
Activity calls are given as the source filed them. Rule as the data show it: active = GI50 up to about 1.1 µM and inactive = higher. Where a SMILES comes first, the peptide text is derived from it. The star is where a group is joined. Boc = CC(C)(C)OC(=O)*; Bn = c1ccc(C*)cc1
ENDPOINT_NAME: GI50

Asked: // lookup GI50 for `O=c1[nH]c(Br)nc2c(Br)c[nH]c12`
Given back: > 100 µM (inactive)

Asked: And `C[Si](C)(C)/N=C1\N2C(=NC1(C(F)(F)F)C(F)(F)F)Sc1ccccc12` ?
Given back: > 50 µM (inactive)

Asked: And CCCC(=O)Nc1cc(/C=C/C(=O)N2CC(CCl)c3c2cc([N+](=O)[O-])c2ccccc32)n(C)c1 (stereo not given) ?
Given back: 8.38 µM (inactive)

Asked: And OC1C#CCSCC#C/C=C\1 (stereo not given) ?
Given back: > 100 µM (inactive)

Asked: And COC(=O)C(CC(C)C)NC(=O)CNC(=O)C(Cc1ccc(OCc2ccccc2)cc1)NC(=O)C(COCc1ccccc1)NC(=O)OC(C)(C)C (stereo not given) (Boc-S(Bn)Y(Bn)GL-OMe; configuration not given here) ?
Given back: > 100 µM (inactive)

###

tested on: MDA-MB-231; assay: NCI tumour cell line growth inhibition, 48 h
Calls of active or inactive are those of the source. No stated cut-off is given here; in the data, active = GI50 up to about 1.1 µM and inactive = higher.
Hi there, use one of these labels in your reply, thanks! T for active, F for inactive

Asked: What did this assay record as the result for `O=C(O)c1nc2cc(C(F)(F)F)ccc2nc1Nc1ccc(F)cc1` ?
Given back: F

Asked: And `COc1ccc2c(=O)cc(-c3ccc(OC)c(OC)c3OC)oc2c1` ?
Given back: F

Asked: And C=C(C)CC1(O[Si](C)(C)C)C(=O)C(OCC)=C1OCC (stereo unspecified) ?
Given back: F

Asked: And NC(=O)c1ncn(C2CCC(CP(=O)(O)O)C2)c1N (stereo unspecified) ?
Given back: F

Asked: And `SCc1ccc(-c2ccc(CS)cc2)cc1` ?
Given back: F

Asked: And `O=C1c2ccccc2C(=O)c2c1ccc1conc21` ?
Given back: T

Asked: And COc1cccc(N2C(=O)C3c4[nH]c5ccccc5c4C4c5ccccc5CCC4C3C2=O)c1 (stereo unspecified) ?
Given back: F

Asked: And `c1ccc(Nn2c(CCCCCCCCc3nnc(COc4ccccc4)n3Nc3ccccc3)nnc2COc2ccccc2)cc1` ?
Given back: F

Asked: And `O=C1CCSCCC(=O)Nc2ccccc2N1` ?
Given back: F

Asked: And Cc1cn(C2CCC(CO)(CF)O2)c(=O)[nH]c1=O (stereo unspecified) ?
Given back: F

Asked: And O=C(Nc1nnc(-c2ccccc2)o1)C(SC(=S)N1CCCCC1)c1ccccc1 (stereo unspecified) ?
Given back: F

###

tested on: MDA-N; assay: NCI tumour cell line growth inhibition, 48 h
Calls of active or inactive are those of the source. Cut-off read from the data, not from the text of the source: active = GI50 up to about 1.1 µM and inactive = higher.
Hi there, use one of these labels in your reply, thanks! active, inactive

Asked: What did this assay record as the result for O=C1CC(c2ccccc2)C2(C(=O)NC(=S)NC2=O)C(c2ccccc2)C1 (stereo unspecified) ?
Given back: inactive

Asked: And `CCCCCCc1nn2c(-c3ccc(C)cc3)nnc2s1` ?
Given back: inactive

Asked: And `O=C1CCSCCC(=O)Nc2ccccc2N1` ?
Given back: inactive

Asked: And COc1cccc2c1C(=N)c1c(O)c3c(c(O)c1C2=O)C[C@@](O)(C(C)=O)C[C@@H]3OC1CC(N)C(O)C(C)O1 (stereo partly specified) ?
Given back: active

Asked: And `Nc1cccc2nsnc12` ?
Given back: inactive

Asked: And C=CCOC(=O)NC1C(OC(C)[C@@H](NC(=O)OCc2ccccc2)C(=O)OC(C)(C)C)OC(COC(C)=O)C(OC(C)=O)C1OC(C)=O (stereo partly specified) ?
Given back: inactive

###

tested on: MCF7; test: NCI tumour cell line growth inhibition, 48 h
Where a name gives a salt, the structure may show the parent alone. The source made the active and inactive calls. Cut-off read from the data, not from the text of the source: active = GI50 up to about 1.1 µM and inactive = higher.
Hi there, use one of these labels in your reply, thanks! T (active), F (inactive)

Asked: What did this assay record as the result for CC(C)(C)OC(=O)N1C(c2cccnc2)=CC[C@H]2C3CC=C(c4cccnc4)[C@@]3(C)CC[C@@H]21 (stereo partly specified) ?
Given back: F

Asked: And COC(=O)C(=O)C(C(=O)C(=O)Nc1nnc(S)[nH]1)c1nc2ccc([N+](=O)[O-])cc2nc1O (stereo unspecified) ?
Given back: F

Asked: And CC(C)(Cl)C(Br)CCC(Br)(CCl)C(Cl)CBr (stereo unspecified) ?
Given back: F

Asked: And `Cc1ccc(S(=O)(=O)Nc2cc(O)nc3c2CCC3)cc1` ?
Given back: F

Asked: And Nc1nc2c(ncn2C2C=CC(COS(N)(=O)=O)C2)c(=O)[nH]1 (stereo unspecified) ?
Given back: F

Asked: And `Nc1nc(O)c2[nH]nnc2n1` ?
Given back: F

Asked: And `O=C1[C@@H]2[C@@H](c3ccccc3)[C@]2(Cl)C(=O)[C@H]2[C@H](c3ccccc3)[C@@]12Cl` ?
Given back: F

Asked: And `COc1cc(O)c(Cc2ccccc2O)c(O)c1C(=O)CCc1ccccc1` ?
Given back: F

Asked: And CSC1=C(c2ccc(Cl)cc2)SC(N2CCCCC2)N1c1ccc([N+](=O)[O-])cc1 (stereo unspecified) ?
Given back: F

Asked: And `O=[N+]([O-])C1(C2([N+](=O)[O-])CCCC2)CCCC1` ?
Given back: F

Asked: And `COc1cc([C@@H]2c3cc4c(cc3C[C@H]3COC(=O)[C@@H]32)OCO4)cc2c1OCO2` ?
Given back: T

Asked: And `NC(=O)c1nnc2ccc(F)cc2c1N` ?
Given back: F

Asked: And `CNC(=S)N/N=C(/C)CCC/C(C)=N/NC(=S)NC` ?
Given back: T

Asked: And CSc1nc(NC2OC(CO)C(O)C(O)C2O)c(N)c(=O)n1C (stereo unspecified) ?
Given back: F

Asked: And `NC1(P(=O)(O)O)CCCCC1` ?
Given back: F

Asked: And N=c1ccn2c(n1)O[C@H]1[C@H](O)[C@@H](CO)O[C@H]12 [ANCITABINE HYDROCHLORIDE] ?
Given back: T

Asked: And Cc1cn(C2CC(O)C(COC(N)=O)O2)c(=O)[nH]c1=O (stereo unspecified) ?
Given back: F

Asked: And `CCc1ccc(Nc2cc(=O)[nH]c(SCc3ccccc3)n2)cc1` ?
Given back: F

Asked: And C1=CC2C(C3CN(c4ccccc4)N=C13)C1C3C4C=CC21C=CC43 (stereo unspecified) ?
Given back: F

Asked: And `Cc1ccc(S(=O)(=O)NC(=O)Nc2c(S(N)(=O)=O)cc(S(N)(=O)=O)c(Cl)c2Cl)cc1` ?
Given back: F

Asked: And `SCc1ccc(-c2ccc(CS)cc2)cc1` ?
Given back: F

###

test system: Hs-578T; assay: NCI tumour cell line growth inhibition, 48 h
The source made the active and inactive calls. Cut-off read from the data, not from the text of the source: active = GI50 up to about 1.1 µM and inactive = higher. Starred links: 1 amine or outer side, 2 acyl side, 3 side chain; linkers in the order of their positions; H or OH if unused. Positions of bridges follow the written chain, without caps; N, C: chain ends. Non-standard residues stand in square brackets, D forms with d. Residues, ends and D or L forms follow the SMILES beside them. Chains are numbered I, II in the order given. Actinocin(9to1) = Cc1c2oc3c(C)ccc(C(=O)[*:1])c3nc-2c(C(=O)[*:2])c(N)c1=O; NMeT = CN[CH](C(=O)O)[CH](C)O; Sar = CNCC(=O)O
Hi there, use one of these labels in your reply, thanks! active, inactive

Asked: What did this assay record as the result for CC1=CC(=O)CC(C)(C)C1/C=C/C(C)=C/C=C/C(C)=C/C=C/C=C(C)/C=C/C=C(C)/C=C/C1=C(C)CC(O)CC1(C)C (stereo unspecified) ?
Given back: inactive

Asked: And `CC(=O)O[C@H]1CC[C@@]2(C)C(=CC[C@H]3[C@@H]4C[C@H](N5CCN(C)CC5)[C@H](OC(C)=O)[C@@]4(C)CC[C@@H]32)C1` ?
Given back: inactive

Asked: And `CCN(C(C)=O)c1cnc(/C=N/NC(N)=S)c2ccccc12` ?
Given back: inactive

Asked: And Nc1nc(O)c2[nH]nnc2n1 [8-AZAGUANINE] ?
Given back: active

Asked: And `COC(=O)c1cc2c3c(c(C(C)=O)c(OC)c2[nH]1)NCC3` ?
Given back: inactive

Asked: And `Cc1cc2c(cc1Cl)SC(NNC1=NCCN1)=NS2(=O)=O` ?
Given back: inactive

Asked: And `Cc1ccc2cccc(OC(=O)c3cc4c(cc3Cl)Sc3nccn3S4(=O)=O)c2n1` ?
Given back: inactive

Asked: And CCN(CC)CCCC(C)Nc1ccnc2cc3ccccc3cc12 (stereo unspecified) ?
Given back: inactive

Asked: And CC12CCC(C1)C(C)(C)C2OC(=O)c1ccccc1N (stereo unspecified) ?
Given back: inactive

Asked: And `CCCN1C(=O)CN(S(=O)(=O)c2ccc(Cl)cc2)C1=O` ?
Given back: inactive

Asked: And Cc1c2oc3c(C)ccc(C(=O)NC4C(=O)NC(C(C)C)C(=O)N5CCCC5C(=O)N(C)CC(=O)N(C)C(C(C)O)C(=O)OC4C)c3nc-2c(C(=O)NC2C(=O)NC(C(C)C)C(=O)N3CCCC3C(=O)N(C)CC(=O)N(C)C(C(C)O)C(=O)OC2C)c(N)c1=O (stereo unspecified) (I: TVP[Sar][NMeT] / II: TVP[Sar][NMeT]; ester I:1-I:C, II:1-II:C; linker I:N-II:N via Actinocin(9to1); configuration not given here) ?
Given back: inactive

Asked: And `Cc1ccc(S(=O)(=O)NC(=O)Nc2c(S(N)(=O)=O)cc(S(N)(=O)=O)c(Cl)c2Cl)cc1` ?
Given back: inactive

Asked: And O=C1CSC(/C=C/c2ccccc2)N1c1ccc(-c2ccc(-n3c(-c4ccccc4)nc4ccccc4c3=O)cc2)cc1 (stereo unspecified) ?
Given back: inactive

Asked: And CN(C)CC(NC(NCS)C(=O)NCCNc1ccc(NCCNC(=O)C(NCS)NC(CN(C)C)OCCl)c2c1C(=O)c1c(O)ccc(O)c1C2=O)OCCl (stereo unspecified) ?
Given back: active

Asked: And `Nn1c(-c2ccccc2)n[nH]c1=O` ?
Given back: inactive

Asked: And `C/C(=N/NC(=S)N1CCCCC1)c1cccc(/C(C)=N\NC(=S)N2CCCCC2)n1` ?
Given back: inactive
